tested on: HBV DNA in HepG2.2.15 cells; assay: HBV in vitro dot-blot hybridization test; assay type: cell-based, Hepatitis B virus; conditions: Hepatitis B virus, HepG2.2.15, dot-blot hybridization assay, read-out: Concentration for 50% inhibition of HBV (EC50)value

>  <molecule>
CCOC(=O)C1=C2CN(Cc3cocn3)CCN2C(c2nccs2)=NC1c1ccc(F)cc1Br (stereo not drawn) [Example 100]

>  <EC50>
1000 to 5000 nM

$$$$
>  <molecule>
CCOC(=O)C1=C2CC(NS(=O)(=O)NC)CN2C(c2nccs2)=N[C@H]1c1ccc(F)cc1Br (mixture of isomers) [Example 54]

>  <EC50>
< 100 nM

$$$$
>  <molecule>
COC(=O)C1=C2C[C@H](NS(C)(=O)=O)CN2C(c2nccs2)=N[C@H]1c1ccc(F)c(Cl)c1 [Example 164]

>  <EC50>
1000 to 5000 nM

$$$$

These data points were gathered from patent US9938301B2.
